Values from the kinase profiling compilation of Christmann-Franck et al. (2016)

Biological target: HIPK1 (human)
Experiment: Caliper, Mobility shift assay off-chip
Conditions: compound 0.2 µM
Experimental Endpoint: inhibition (%)

CCN(CC)CCNC(=O)c1c(C)[nH]c(/C=C2\C(=O)Nc3ccc(F)cc32)c1C :: 51.3
Cc1ccc(Nc2nccc(N(C)c3ccc4c(C)n(C)nc4c3)n2)cc1S(N)(=O)=O :: 7.3
COc1cc2c(Oc3ccc4[nH]c(C)cc4c3F)ncnc2cc1OCCCN1CCCC1 :: -1
CNC(=O)c1cc(Oc2ccc(NC(=O)Nc3ccc(Cl)c(C(F)(F)F)c3)cc2)ccn1 :: 3.9

* * *

Molecular target: TNIK (human)
Assay: Caliper, Mobility shift assay off-chip
Conditions: compound 0.02 µM
Experimental Endpoint: inhibition (%)

CNC(=O)c1cc(Oc2ccc(NC(=O)Nc3ccc(Cl)c(C(F)(F)F)c3)cc2)ccn1 :: -6.2
Cc1ccc(Nc2nccc(N(C)c3ccc4c(C)n(C)nc4c3)n2)cc1S(N)(=O)=O :: 7.3
CNC(=O)c1ccccc1Sc1ccc2c(/C=C/c3ccccn3)n[nH]c2c1 :: 1.4
COc1cc2c(Oc3ccc4[nH]c(C)cc4c3F)ncnc2cc1OCCCN1CCCC1 :: -0.5
